# activation at 0.8 µg/mL per entry
Test system: human mucoepidermoid pulmonary carcinoma cell line NCI-H292
testDetails: Mucin secretion (MUC4, MUC5AC) by ELISA in NCI-H292 cells
Format: cell-based
conditionLabel: 0.8 μg/mL, 24 hours, read-out: % increase in mucin secretion vs. non-treated control group
Give the value in % but do not write % after it.

>>> observed("COc1ccc(-c2cc(=O)c3c(OC)cc(OCC(N)=O)cc3o2)cc1OC [Example 3]")
2.2
>>> observed("COc1ccc(-c2cc(=O)c3c(OC)cc(OCc4nnn[nH]4)cc3o2)cc1OC [Example 1]")
18.7

Name the recorded activation at 0.8 µg/mL for COc1ccc(-c2cc(=O)c3c(OC)cc(OCC(=O)NS(=O)(=O)c4ccccc4)cc3o2)cc1OC [Example 5] . 43.9

Now try COc1ccc(-c2cc(=O)c3c(OC)cc(OCC(=O)O)cc3o2)cc1OC.O [monohydrate] . 24.8

Now try COc1ccc(-c2cc(=O)c3c(OC)cc(OCC(=O)NS(C)(=O)=O)cc3o2)cc1OC [Example 9] . 9.7

Now try COc1ccc(-c2cc(=O)c3c(OC)cc(OCC(=O)NS(N)(=O)=O)cc3o2)cc1OC [Example 8] . 4.4

Now try COc1ccc(-c2cc(=O)c3c(OC)cc(OCC(=O)NC(C)=O)cc3o2)cc1OC [Example 12] . 15.2
